Form field: CC50 at 48 h (one value per entry).
# procedureSummary: Cytotoxicity against BALB/c mouse T cell assessed as reduction in cell viability after 48 hrs by CCK8 assay
# Type: tissue-based, T cell line
# conditionInfo: BALB/c mouse T cells
observedProperty: CC50 at 48 h (nM)

[
  {
    "chemSmiles": "C#CCOC(=O)[C@]1(C)CC[C@]2(C)CC[C@]3(C)C4=C[C@@H](c5c[nH]c6cc(F)ccc56)c5c(cc(OC(C)=O)c(OC(C)=O)c5C)[C@]4(C)CC[C@@]3(C)[C@@H]2C1",
    "censorSymbol": "≥",
    "reportedMeasurement": 10000
  },
  {
    "chemSmiles": "C#CCOC(=O)[C@]1(C)CC[C@]2(C)CC[C@]3(C)C4=C[C@@H](c5c[nH]c6ccccc56)c5c(cc(OC(C)=O)c(OC(C)=O)c5C)[C@]4(C)CC[C@@]3(C)[C@@H]2C1",
    "censorSymbol": "≥",
    "reportedMeasurement": 10000
  },
  {
    "chemSmiles": "C#CCOC(=O)[C@]1(C)CC[C@]2(C)CC[C@]3(C)C4=C[C@@H](c5c[nH]c6ccc(OC)cc56)c5c(cc(OC(C)=O)c(OC(C)=O)c5C)[C@]4(C)CC[C@@]3(C)[C@@H]2C1",
    "censorSymbol": "≥",
    "reportedMeasurement": 10000
  },
  {
    "chemSmiles": "CCNC(=O)[C@]1(C)CC[C@]2(C)CC[C@]3(C)C4=CC=C5C(=CC(=O)C(O)=C5C)[C@]4(C)CC[C@@]3(C)[C@@H]2C1",
    "censorSymbol": "=",
    "reportedMeasurement": 1100
  },
  {
    "chemSmiles": "CC1=C(O)C(=O)C=C2C1=CC=C1[C@@]2(C)CC[C@@]2(C)[C@@H]3C[C@](C)(C(=O)OCCBr)CC[C@]3(C)CC[C@]12C",
    "censorSymbol": "=",
    "reportedMeasurement": 1100
  },
  {
    "chemSmiles": "C#CCOC(=O)[C@]1(C)CC[C@]2(C)CC[C@]3(C)C4=C[C@@H](c5c[nH]c6ccc(Cl)cc56)c5c(cc(OC(C)=O)c(OC(C)=O)c5C)[C@]4(C)CC[C@@]3(C)[C@@H]2C1",
    "censorSymbol": "≥",
    "reportedMeasurement": 10000
  },
  {
    "chemSmiles": "CNC(=O)[C@]1(C)CC[C@]2(C)CC[C@]3(C)C4=CC=C5C(=CC(=O)C(O)=C5C)[C@]4(C)CC[C@@]3(C)[C@@H]2C1",
    "censorSymbol": "=",
    "reportedMeasurement": 1200
  },
  {
    "chemSmiles": "CC1=C(O)C(=O)C=C2C1=CC=C1[C@@]2(C)CC[C@@]2(C)[C@@H]3C[C@](C)(C(=O)N4CCCC4)CC[C@]3(C)CC[C@]12C",
    "censorSymbol": "=",
    "reportedMeasurement": 1900
  },
  {
    "chemSmiles": "C#CCNC(=O)[C@]1(C)CC[C@]2(C)CC[C@]3(C)C4=CC=C5C(=CC(=O)C(O)=C5C)[C@]4(C)CC[C@@]3(C)[C@@H]2C1",
    "censorSymbol": "=",
    "reportedMeasurement": 1400
  },
  {
    "chemSmiles": "C#CCOC(=O)[C@]1(C)CC[C@]2(C)CC[C@]3(C)C4=C[C@@H](c5c[nH]c6c(C)cccc56)c5c(cc(OC(C)=O)c(OC(C)=O)c5C)[C@]4(C)CC[C@@]3(C)[C@@H]2C1",
    "censorSymbol": "≥",
    "reportedMeasurement": 10000
  },
  {
    "chemSmiles": "COCCOC(=O)[C@]1(C)CC[C@]2(C)CC[C@]3(C)C4=CC=C5C(=CC(=O)C(O)=C5C)[C@]4(C)CC[C@@]3(C)[C@@H]2C1",
    "censorSymbol": "=",
    "reportedMeasurement": 1300
  }
]
